Test: Compound cytotoxicity, XTT-based colorimetric assay
Type: cell-based
Conditions: human, uninfected MT2 cells, Table 1a, day 4, XTT
Measured CC50 at 4 days values are reported for all entries that follow.

Worked set:
Compound | Observed Measurement
COc1cccc2nc([C@H](Cc3cc(F)cc(F)c3)NC(=O)Cn3nc(C(F)F)c4c3C(F)(F)[C@@H]3C[C@H]43)n(-c3ccc(Cl)c4c(NS(C)(=O)=O)nn(C)c34)c(=O)c12 (mixture of isomers) [Example 169] | > 1 µM
Cc1ccc2c(=O)n(-c3ccc(Cl)c4c(NS(C)(=O)=O)nn(C)c34)c([C@H](Cc3cc(F)cc(F)c3)NC(=O)Cn3nc(C(F)F)c4c3C(F)(F)[C@@H]3C[C@H]43)nc2n1 (mixture of isomers) [Example 41.2] | > 10 µM
CC(C)c1ccc(-n2c([C@H](Cc3cc(F)cc(F)c3)NC(=O)Cn3nc(C(F)F)c4c3C(F)(F)[C@@H]3C[C@H]43)nc3cc(C#N)ccc3c2=O)cn1 [Example 163] | 3.98 µM

Given O=C(Cn1nc(C(F)F)c2c1C(F)(F)[C@@H]1C[C@H]21)NC(Cc1cc(F)cc(F)c1)c1nc2cc[nH]c2cc1-c1ccc2c(c1)C(=O)NC2 (stereo partly drawn) [Example 61] , state its recorded CC50 at 4 days.
> 10 µM

---

Test: Compound cytotoxicity, XTT-based colorimetric assay
Format: cell-based
Details: human, uninfected MT2 cells, Table 1a, day 4, XTT
Value Type: CC50 at 4 days

Molecule | CC50 at 4 days
Cn1nc(NS(C)(=O)=O)c2c(Cl)ccc(-n3c([C@H](Cc4cc(F)cc(F)c4)NC(=O)Cn4nc(C(F)F)c5c4C(F)(F)[C@@H]4C[C@H]54)nc4ccc(Cl)c(F)c4c3=O)c21 (mixture of isomers) [Example 175] | > 1 µM
Cc1cc(C)c2c(=O)n(-c3ccc(Cl)c4c(NS(C)(=O)=O)nn(C)c34)c(C(Cc3cc(F)cc(F)c3)NC(=O)Cn3nc(C(F)F)c4c3C(F)(F)[C@@H]3C[C@H]43)nc2n1 (mixture of isomers) | > 10 µM

Next molecule, CC50 at 4 days to be filled in.
CC50 at 4 days for CC(C)c1ccc(-c2cc3[nH]ccc3nc2[C@H](Cc2cc(F)cc(F)c2)NC(=O)Cn2nc(C(F)F)c3c2C(F)(F)[C@@H]2C[C@H]32)cn1 ?
10 µM

---

Experiment: Compound cytotoxicity, XTT-based colorimetric assay
Assay type: cell-based
Conditions: human, uninfected MT2 cells, Table 1a, day 4, XTT
Value Type: CC50 at 4 days

Compound | CC50 at 4 days
Cn1nc(NS(C)(=O)=O)c2c(Cl)ccc(-n3c([C@H](Cc4cc(F)cc(F)c4)NC(=O)Cn4nc(C(F)F)c5c4CCC5)nc4c(F)cc(F)cc4c3=O)c21 (single isomer, unassigned) | > 1 µM
Cn1nc(NS(C)(=O)=O)c2c(Cl)ccc(-n3c([C@H](Cc4cc(F)cc(F)c4)NC(=O)Cn4nc(C(F)F)c5c4C(F)(F)[C@@H]4C[C@H]54)nc4ccc(Cl)c(F)c4c3=O)c21 (single isomer, unassigned) [Example 176] | > 1 µM
CN(C)S(=O)(=O)c1ccc(-c2cc3[nH]ncc3nc2[C@H](Cc2cc(F)cc(F)c2)NC(=O)Cn2nc(C(F)F)c3c2C(F)(F)[C@@H]2C[C@H]32)cc1 | 5.01 µM
Cn1nc(NS(C)(=O)=O)c2c(Cl)ccc(-n3c([C@H](Cc4cc(F)cc(F)c4)NC(=O)Cn4nc(C(F)F)c5c4C(F)(F)[C@@H]4C[C@H]54)nc4cc(C(C)(C)S(C)(=O)=O)ccc4c3=O)c21 (mixture of isomers) | > 1 µM
Cn1nc(NS(C)(=O)=O)c2c(Cl)ccc(-n3c([C@H](Cc4cc(F)cc(F)c4)NC(=O)Cn4nc(C(F)F)c5c4C(F)(F)[C@@H]4C[C@H]54)nc4cc(C(C)(F)F)ccc4c3=O)c21 (single isomer, unassigned) [Example 196] | > 1 µM

What value of CC50 at 4 days has been reported for the following compound? COc1ccc2c(=O)n(-c3ccc(Cl)c4c(NS(C)(=O)=O)nn(C)c34)c([C@H](Cc3cc(F)cc(F)c3)NC(=O)Cn3ccc(C4CC4)n3)nc2c1 (single isomer, unassigned)
> 1 µM

What CC50 at 4 days value was documented for this compound, Cn1nc(NS(C)(=O)=O)c2c(Cl)ccc(-n3c([C@H](Cc4cc(F)cc(F)c4)NC(=O)Cn4nc(C(F)F)c5c4C(F)(F)[C@@H]4C[C@H]54)nc4ccc(F)c(Cl)c4c3=O)c21 (single isomer, unassigned) [Example 160] ?
> 1 µM

Given the compound Cn1nc(NS(C)(=O)=O)c2c(Cl)ccc(-n3c([C@H](Cc4cc(F)cc(F)c4)NC(=O)Cn4ccc(C5CC5)n4)nc4cccc(C(F)(F)F)c4c3=O)c21 (single isomer, unassigned) , what is its reported CC50 at 4 days?
> 1 µM

Entry CC(C)(C)c1ccc2c(=O)n(-c3ccc(Cl)c4c(NS(C)(=O)=O)nn(CC(F)F)c34)c([C@H](Cc3cc(F)cc(F)c3)NC(=O)Cn3nc(C(F)F)c4c3C(F)(F)[C@@H]3C[C@H]43)nc2c1 has what CC50 at 4 days?
> 1 µM

Dear colleague, I am looking for the recorded CC50 at 4 days of the following compound: Cn1nc(NS(C)(=O)=O)c2c(Cl)ccc(-n3c([C@H](Cc4cc(F)cc(F)c4)NC(=O)Cn4nc(C(F)F)c5c4C(F)(F)[C@@H]4C[C@H]54)nc4cc(Cl)cc(Cl)c4c3=O)c21 (single isomer, unassigned) [Example 179]
> 1 µM

---

Experiment: Compound cytotoxicity, XTT-based colorimetric assay
Assay type: cell-based
Conditions: human, uninfected MT2 cells, Table 1, day 4, XTT
Value Type: CC50 at 4 days

Consider the reported CC50 at 4 days for these compounds:
Compound | Observed Measurement
N#Cc1cccc(-c2cc3[nH]ncc3nc2[C@H](Cc2cc(F)cc(F)c2)NC(=O)Cn2nc(C(F)F)c3c2C(F)(F)[C@@H]2C[C@H]32)c1 [Example 10.2] | 9.7 µM
CC(C)c1ccc(-n2c([C@H](Cc3cc(F)cc(F)c3)NC(=O)Cc3c[nH]c4ccc(O)cc34)nc3ccccc3c2=O)cn1 [Example 10.33] | > 10 µM
O=C(Cn1nc(C(F)F)c2c1C(F)(F)[C@@H]1C[C@H]21)N[C@@H](Cc1cc(F)cc(F)c1)c1nc2cn[nH]c2cc1-c1cccc(C(=O)O)c1 [Example 10.10] | > 10 µM

For CC(C)c1ccc(-n2c([C@H](Cc3cc(F)cc(F)c3)NC(=O)Cn3nc(C(F)F)c4c3C(F)(F)[C@@H]3C[C@H]43)nc3ncccc3c2=O)cc1 [Example 10.35] , what is its reported CC50 at 4 days?
1.9 µM

Requested read-out: CC50 at 4 days. Entry: O=C(Cn1nc(C(F)F)c2c1C(F)(F)[C@@H]1C[C@H]21)N[C@@H](Cc1cc(F)cc(F)c1)c1nc2cn[nH]c2cc1-c1ccc(Cl)c(C(=O)NS(=O)(=O)C2CCCC2)c1 [Example 10.21]
> 10 µM

Record request: CC50 at 4 days value, item O=C(Cn1nc(C(F)F)c2c1C(F)(F)[C@@H]1C[C@H]21)N[C@@H](Cc1cc(F)cc(F)c1)c1nc2cn[nH]c2cc1-c1ccc(F)c(C(=O)NS(=O)(=O)C2CC2)c1 [Example 10.28]
> 10 µM

Which CC50 at 4 days is listed for CC(C)S(=O)(=O)NC(=O)c1cc(-c2cc3[nH]ncc3nc2[C@H](Cc2cc(F)cc(F)c2)NC(=O)Cn2nc(C(F)F)c3c2C(F)(F)[C@@H]2C[C@H]32)ccc1F [Example 10.27] ?
> 10 µM

Consider the compound shown here: O=C(Cc1c[nH]c2ccc(O)cc12)NC(Cc1cc(F)cc(F)c1)c1nc2cn[nH]c2cc1-c1ccc2scnc2c1 (single isomer, unassigned) [Example 3.3] What is its recorded CC50 at 4 days?
42.4 µM

---

// CC50 at 4 days lookup, one value per entry
Experiment: Compound cytotoxicity, XTT-based colorimetric assay
Format: cell-based
Conditions: human, uninfected MT2 cells, Table 1a, day 4, XTT

Before answering, review these 4 worked examples.
Compound | CC50 at 4 days
COc1ccc2c(=O)n(-c3cccc4c(NS(C)(=O)=O)nn(C)c34)c([C@H](Cc3cc(F)cc(F)c3)NC(=O)Cn3nc(C(F)F)c4c3C(F)(F)[C@@H]3C[C@H]43)nc2c1 (single isomer, unassigned) [Example 80] | > 1 µM
O=C(Cn1nc(C(F)F)c2c1C(F)(F)[C@@H]1C[C@H]21)N[C@@H](Cc1cc(F)cc(F)c1)c1nc2ccccc2nc1-c1ccc2c(c1)C(=O)NC2 [Example 157] | > 10 µM
COc1c(F)ccc2c(=O)n(-c3ccc(Cl)c4c(NS(C)(=O)=O)nn(C)c34)c([C@H](Cc3cc(F)cc(F)c3)NC(=O)Cn3ccc(C4CC4)n3)nc12 (single isomer, unassigned) [Example 111] | > 1 µM
O=C(Cn1nc(C(F)F)c2c1C(F)(F)[C@@H]1C[C@H]21)N[C@H](Cc1cc(F)cc(F)c1)c1nc2cc[nH]c2cc1-c1ccc(S(=O)(=O)N2CCOCC2)cc1 [Example 66] | 10 µM

Which CC50 at 4 days value belongs to Cc1c(F)ccc2c(=O)n(-c3ccc(Cl)c4c(NS(C)(=O)=O)nn(C)c34)c([C@H](Cc3cc(F)cc(F)c3)NC(=O)Cn3nc(C(F)F)c4c3C(F)(F)[C@@H]3C[C@H]43)nc12 (single isomer, unassigned) [Example 107] ?
> 1 µM
